molecular target: PI3K (Homo sapiens, UniProt P42336); experiment: Fluorescence polarization assay for PI3K; type: biochemical; conditions: PI3Kα; read-out: PI3Kα IC50;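 also: PI3K kinase reaction on PIP2 with ATP, 30-60 min, product sensed by GST-GRP with red probe in fluorescence polarization (mP), controls without enzyme and at zero time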
Sequence (P42336 whole entry): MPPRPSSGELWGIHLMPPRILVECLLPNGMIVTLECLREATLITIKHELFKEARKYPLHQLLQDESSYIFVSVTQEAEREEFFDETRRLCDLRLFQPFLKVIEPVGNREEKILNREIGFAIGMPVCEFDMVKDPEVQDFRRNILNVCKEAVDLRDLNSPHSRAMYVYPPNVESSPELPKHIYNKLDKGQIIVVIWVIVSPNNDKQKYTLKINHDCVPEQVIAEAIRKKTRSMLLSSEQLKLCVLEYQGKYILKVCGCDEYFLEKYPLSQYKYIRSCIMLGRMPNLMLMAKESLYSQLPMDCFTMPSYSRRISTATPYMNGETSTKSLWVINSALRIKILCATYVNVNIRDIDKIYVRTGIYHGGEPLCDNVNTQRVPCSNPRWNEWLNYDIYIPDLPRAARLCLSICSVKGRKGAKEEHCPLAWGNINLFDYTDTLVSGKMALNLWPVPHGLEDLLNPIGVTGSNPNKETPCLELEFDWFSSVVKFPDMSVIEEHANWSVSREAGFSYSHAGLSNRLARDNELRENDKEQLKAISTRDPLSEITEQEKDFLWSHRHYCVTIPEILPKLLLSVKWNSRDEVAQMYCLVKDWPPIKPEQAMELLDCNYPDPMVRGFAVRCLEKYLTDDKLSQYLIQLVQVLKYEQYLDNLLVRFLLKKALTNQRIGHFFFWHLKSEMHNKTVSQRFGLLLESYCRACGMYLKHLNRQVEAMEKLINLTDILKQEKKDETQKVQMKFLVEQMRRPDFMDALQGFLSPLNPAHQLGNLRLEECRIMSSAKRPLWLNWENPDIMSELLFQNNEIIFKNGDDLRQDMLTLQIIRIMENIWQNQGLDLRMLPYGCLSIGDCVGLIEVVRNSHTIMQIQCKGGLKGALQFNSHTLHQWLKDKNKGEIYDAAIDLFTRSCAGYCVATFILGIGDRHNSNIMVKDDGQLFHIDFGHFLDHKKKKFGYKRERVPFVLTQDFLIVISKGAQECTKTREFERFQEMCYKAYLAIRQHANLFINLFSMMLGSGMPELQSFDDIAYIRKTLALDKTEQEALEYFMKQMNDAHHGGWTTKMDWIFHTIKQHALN
Sequence (P27986 whole entry partner): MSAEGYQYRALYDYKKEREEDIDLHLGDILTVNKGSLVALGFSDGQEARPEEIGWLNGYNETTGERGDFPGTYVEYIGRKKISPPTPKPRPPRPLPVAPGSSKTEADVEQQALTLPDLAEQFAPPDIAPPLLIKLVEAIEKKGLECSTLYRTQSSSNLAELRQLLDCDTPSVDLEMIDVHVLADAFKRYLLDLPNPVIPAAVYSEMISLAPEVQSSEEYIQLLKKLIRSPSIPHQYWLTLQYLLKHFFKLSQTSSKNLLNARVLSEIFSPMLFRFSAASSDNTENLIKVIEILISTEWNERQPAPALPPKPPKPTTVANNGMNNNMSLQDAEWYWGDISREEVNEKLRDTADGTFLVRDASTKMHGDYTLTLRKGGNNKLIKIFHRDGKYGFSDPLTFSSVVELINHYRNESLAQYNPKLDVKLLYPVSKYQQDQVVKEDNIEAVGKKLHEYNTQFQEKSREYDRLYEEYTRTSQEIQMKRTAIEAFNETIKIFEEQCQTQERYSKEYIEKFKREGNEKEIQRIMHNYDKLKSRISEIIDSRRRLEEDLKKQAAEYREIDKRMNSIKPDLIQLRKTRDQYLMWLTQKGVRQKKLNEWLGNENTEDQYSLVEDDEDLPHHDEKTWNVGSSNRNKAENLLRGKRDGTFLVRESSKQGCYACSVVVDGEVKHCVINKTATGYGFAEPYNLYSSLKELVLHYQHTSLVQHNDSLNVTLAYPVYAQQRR
property: IC50 (nM)

compound | measured number
COC(=O)N1CCC(n2ncc3c(N4CCOCC4)nc(-c4ccc(NC(=O)OCCN5CCOCC5)cc4)nc32)CC1 | 2040
CCNC(=O)Nc1ccc(-c2nc(N3CCOCC3)c3cnn(C4CCN(Cc5cccnc5)CC4)c3n2)cn1 | 138
COC(=O)N1CCC(n2ncc3c(N4CCOCC4)nc(-c4ccc(N/C(=N/C#N)Oc5ccccc5)cc4)nc32)CC1 | 1890
CNC(=O)Nc1ccc(-c2nc(N3CCOCC3)c3cnn(C4CCN(C(=O)c5cccc(OC)c5)CC4)c3n2)cc1 [Compound 610] | 75
CNC(=O)Nc1ccc(-c2nc(N3CCOCC3)c3cnn(C4CCN(C(=S)NC)CC4)c3n2)cc1 | 42
O=C(NO)Nc1ccc(-c2nc(N3CCOCC3)c3cnn(-c4ccccc4)c3n2)cc1 [Compound 539] | 211
Brc1ccc(CN2CCC(n3ncc4c(N5CCOCC5)nc(-c5ccc6[nH]ccc6c5)nc43)CC2)cn1 | 262
COC(=O)N1CCC(n2ncc3c(N4CCOCC4)nc(-c4ccc(NC(=O)Nc5ccc(CCN6CCCCC6)cc5)cc4)nc32)CC1 | 26
C=CCONC(=O)Nc1ccc(-c2nc(N3CCOCC3)c3cnn(-c4ccccc4)c3n2)cc1 [Compound 542] | 896
Oc1cccc(-c2nc(N3CCOCC3)c3cnn(C4CCCCC4)c3n2)c1 | 35
COC(=O)N1CCC(n2ncc3c(N4CCOC(C)C4)nc(-c4ccc(NC(=O)Nc5ccccn5)cc4)nc32)CC1 (centres unmarked) | 8320
OCCCN1CCC(n2ncc3c(N4CCOCC4)nc(-c4ccc5[nH]ccc5c4)nc32)CC1 [Compound 247] | 7290
O=C(Nc1ccc(-c2nc(N3CCOCC3)c3cnn(C4CCN(Cc5cccnc5)CC4)c3n2)cc1)NC1CC1 [Example 405] | 438
Oc1cccc(-c2nc(N3CCSCC3)c3cnn(-c4ccccc4)c3n2)c1 | 1620
O=C(Nc1ccc(-c2nc(N3CCOCC3)c3cnn(C4CCN(C(=O)c5cccnc5)CC4)c3n2)cc1)Nc1ccccn1 [Example 345] | 261
CNCCNC(=O)Nc1ccc(-c2nc(N3CCOCC3)c3cnn(C4CCN(C(=O)c5ccccc5)CC4)c3n2)cc1 [Compound 631] | 48
CNC(=O)Nc1ccc(-c2nc(N3CCOCC3)c3cnn(C4CCN(C(=O)c5cccnc5)CC4)c3n2)cn1 [Compound 480] | 42
CN(C)CC(=O)Nc1ccc(-c2nc(N3CCOCC3)c3cn[nH]c3n2)cc1 [Compound 527] | 2270
O=S(=O)(c1ccccc1)N1CCC(n2ncc3c(N4CCOCC4)nc(-c4ccc5[nH]ccc5c4)nc32)CC1 | 4640
CNC(=O)Nc1ccc(-c2nc(N3CCOCC3)c3cnn(C4CCN(CC(=O)c5ccccc5)CC4)c3n2)cc1 [Compound 577] | 22
COC(=O)Nc1ccc(-c2nc(N3CCOCC3)c3cnn(C4CCN(C(=O)OC(C)C)CC4)c3n2)cc1 | 4550
CNC(=O)Nc1ccc(-c2nc(N3CCOCC3)c3cnn(C4CCN(C(=O)c5ccccc5Cl)CC4)c3n2)cc1 [Example 355] | 79
O=C(Nc1ccncc1)Nc1ccc(-c2nc(N3CCOCC3)c3cnn(C4CCN(C(=O)c5cccnc5)CC4)c3n2)cc1 [Compound 591] | 15
CONC(=O)Nc1ccc(-c2nc(N3CCOCC3)c3cnn(-c4ccccc4)c3n2)cc1 [Compound 541] | 404
NC(=O)Nc1cccc(-c2nc(N3CCOCC3)c3cnn(C4CCN(Cc5ccccc5)CC4)c3n2)c1 [Compound 483] | 2170
CC(C)(C)OC(=O)N1CCC[C@@H](n2ncc3c(N4CCOCC4)nc(-c4ccc5[nH]ccc5c4)nc32)C1 | 890
Nc1ccc(-c2nc(N3CCOCC3)c3cnn(C4CCN(C(=O)c5cccnc5)CC4)c3n2)c(F)c1 [Compound 704] | 4030
CN(C)c1ccc(-c2nc(N3CCOCC3)c3cnn(-c4ccccc4)c3n2)cc1 | 393
O=C(NCCF)Nc1ccc(-c2nc(N3CCOCC3)c3cnn(C4CCN(Cc5cccnc5)CC4)c3n2)cc1 [Compound 560] | 338
